target: human Siglec-7 on primary human monocyte-derived dendritic cells (human, UniProt Q9Y286 19-467); test: cell-based or functional assay
Sequence (Q9Y286 19-467): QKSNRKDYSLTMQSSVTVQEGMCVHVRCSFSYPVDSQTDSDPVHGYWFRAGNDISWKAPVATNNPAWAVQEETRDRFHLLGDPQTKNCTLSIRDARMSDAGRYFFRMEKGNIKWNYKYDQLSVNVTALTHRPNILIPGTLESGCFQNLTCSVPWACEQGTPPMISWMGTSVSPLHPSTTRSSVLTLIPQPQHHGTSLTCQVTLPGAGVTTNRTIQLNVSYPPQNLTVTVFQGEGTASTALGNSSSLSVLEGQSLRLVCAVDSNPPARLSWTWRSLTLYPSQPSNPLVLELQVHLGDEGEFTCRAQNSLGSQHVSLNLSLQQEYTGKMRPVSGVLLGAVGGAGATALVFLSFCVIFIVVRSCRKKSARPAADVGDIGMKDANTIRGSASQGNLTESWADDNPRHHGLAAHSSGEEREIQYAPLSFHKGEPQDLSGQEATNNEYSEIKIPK
Reported Receptor downregulation, (pM, EC50) values are given for each entry in this list.
Give a bare numeral; the unit pM is implied.

Worked cases, Receptor downregulation, (pM, EC50) given:
S7AB-H8.44 huIgG1 SELF (antibody, V domains shown) VH: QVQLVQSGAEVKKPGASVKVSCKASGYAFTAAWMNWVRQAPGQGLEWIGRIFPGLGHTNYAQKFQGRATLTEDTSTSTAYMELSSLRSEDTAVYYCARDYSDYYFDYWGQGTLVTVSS VL: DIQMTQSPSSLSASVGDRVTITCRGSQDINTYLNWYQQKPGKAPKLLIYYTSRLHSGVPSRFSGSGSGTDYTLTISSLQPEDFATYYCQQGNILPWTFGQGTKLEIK = 9.1
S7AB-H8.44 huIgG1 (antibody, V domains shown) VH: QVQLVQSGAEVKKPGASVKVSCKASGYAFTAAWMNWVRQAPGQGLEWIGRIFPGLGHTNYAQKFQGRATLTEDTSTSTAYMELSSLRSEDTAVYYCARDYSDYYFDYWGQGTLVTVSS VL: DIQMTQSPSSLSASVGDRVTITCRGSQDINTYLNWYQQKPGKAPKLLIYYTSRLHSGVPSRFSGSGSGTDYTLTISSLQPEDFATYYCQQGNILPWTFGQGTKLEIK = 33.6

Now consider a different binder.
Q) Consider the binder shown here: S7AB-H8.44 huIgG2 (antibody, V domains shown) VH: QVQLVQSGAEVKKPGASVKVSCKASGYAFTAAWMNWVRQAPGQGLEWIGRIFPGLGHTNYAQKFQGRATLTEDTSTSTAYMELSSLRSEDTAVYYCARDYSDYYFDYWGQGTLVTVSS VL: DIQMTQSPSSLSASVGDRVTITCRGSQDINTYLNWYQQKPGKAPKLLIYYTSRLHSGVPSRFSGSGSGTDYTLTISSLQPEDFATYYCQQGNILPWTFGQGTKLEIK What is its recorded Receptor downregulation, (pM, EC50)?
A) 43.8
